# EXPERIMENTAL TARGET: T1, human LAG3 expressed on cells (human, UniProt P18627 23-525)
# T1 construct: whole, on cells
# T1 sequence (looked up): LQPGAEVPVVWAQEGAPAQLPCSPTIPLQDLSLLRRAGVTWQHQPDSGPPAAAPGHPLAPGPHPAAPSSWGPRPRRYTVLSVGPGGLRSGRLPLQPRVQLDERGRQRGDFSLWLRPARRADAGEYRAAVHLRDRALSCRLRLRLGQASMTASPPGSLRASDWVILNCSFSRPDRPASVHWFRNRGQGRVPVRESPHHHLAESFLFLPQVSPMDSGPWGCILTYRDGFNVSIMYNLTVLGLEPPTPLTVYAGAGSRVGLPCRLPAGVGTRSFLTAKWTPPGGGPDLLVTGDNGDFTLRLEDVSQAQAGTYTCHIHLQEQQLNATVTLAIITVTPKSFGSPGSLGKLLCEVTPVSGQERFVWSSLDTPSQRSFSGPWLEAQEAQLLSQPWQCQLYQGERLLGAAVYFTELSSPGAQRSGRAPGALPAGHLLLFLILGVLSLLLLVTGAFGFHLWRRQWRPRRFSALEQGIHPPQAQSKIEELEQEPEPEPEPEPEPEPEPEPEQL
# PROTOCOL DETAILS: cell ELISA, 293T-hLAG3 cells
MEASUREMENT LABEL: OD450 at 3.333333 ug/ml
Answer as a number with no unit attached.

sdAb No. 27-H1 (VHH, Modified sdAb No. 27 (CDR2 DG to DA); not shown: Fc part implied by anti-human IgG1 Fc detection) VHH: QVQLVESGGGLVQPGGSLRLSCAASGFTLDYYAIGWFRQAPGKEREGVSCIRSSDASTYYADSVKGRFTISSDNTKNTVYLQMNSLKPEDTAVYYCATDRYSDCRGPYENWGQGTQVTVSS :: 1.24
sdAb No. 17-H1 (VHH, Modified sdAb No. 17 (CDR1 DG to DA); not shown: Fc part implied by anti-human IgG1 Fc detection) VHH: QLQLVESGGGLVQPGGSLRLSCAASGLTLDAYAIGWFRQAPGKEREGLACISGSDGSTHYLDSVKGRFTISRDNGKNTMALQMNSLQFGDTAIYYCAARRGSCSGSWTYWGQGTQVTVSS :: 1.44
sdAb No. 17 (VHH, Fc of the tested form not described; also called sdAb 17; not shown: Fc part implied by anti-human Fc capture and anti-human IgG1 Fc detection) VHH: QLQLVESGGGLVQPGGSLRLSCAASGLTLDGYAIGWFRQAPGKEREGLACISGSDGSTHYLDSVKGRFTISRDNGKNTMALQMNSLQFGDTAIYYCAARRGSCSGSWTYWGQGTQVTVSS :: 1.44

OD450 at 3.333333 ug/ml reading for sdAb No. 17-H2 (VHH, Modified sdAb No. 17 (CDR1 DG to EG); not shown: Fc part implied by anti-human IgG1 Fc detection) VHH: QLQLVESGGGLVQPGGSLRLSCAASGLTLEGYAIGWFRQAPGKEREGLACISGSDGSTHYLDSVKGRFTISRDNGKNTMALQMNSLQFGDTAIYYCAARRGSCSGSWTYWGQGTQVTVSS : 1.28

OD450 at 3.333333 ug/ml reading for sdAb No. 17-H4 (VHH, Modified sdAb No. 17 (CDR2 DG to EG); not shown: Fc part implied by anti-human IgG1 Fc detection) VHH: QLQLVESGGGLVQPGGSLRLSCAASGLTLDGYAIGWFRQAPGKEREGLACISGSEGSTHYLDSVKGRFTISRDNGKNTMALQMNSLQFGDTAIYYCAARRGSCSGSWTYWGQGTQVTVSS : 0.905

OD450 at 3.333333 ug/ml reading for sdAb No. 27 (VHH, Fc of the tested form not described; also called sdAb 27; not shown: Fc part implied by anti-human Fc capture and anti-human IgG Fc detection) VHH: QVQLVESGGGLVQPGGSLRLSCAASGFTLDYYAIGWFRQAPGKEREGVSCIRSSDGSTYYADSVKGRFTISSDNTKNTVYLQMNSLKPEDTAVYYCATDRYSDCRGPYENWGQGTQVTVSS : 1.21

OD450 at 3.333333 ug/ml reading for sdAb No. 17-H3 (VHH, Modified sdAb No. 17 (CDR2 DG to DA); not shown: Fc part implied by anti-human IgG1 Fc detection) VHH: QLQLVESGGGLVQPGGSLRLSCAASGLTLDGYAIGWFRQAPGKEREGLACISGSDASTHYLDSVKGRFTISRDNGKNTMALQMNSLQFGDTAIYYCAARRGSCSGSWTYWGQGTQVTVSS : 1.13

OD450 at 3.333333 ug/ml reading for sdAb No. 27-H2 (VHH, Modified sdAb No. 27 (CDR2 DG to EG); not shown: Fc part implied by anti-human IgG1 Fc detection) VHH: QVQLVESGGGLVQPGGSLRLSCAASGFTLDYYAIGWFRQAPGKEREGVSCIRSSEGSTYYADSVKGRFTISSDNTKNTVYLQMNSLKPEDTAVYYCATDRYSDCRGPYENWGQGTQVTVSS : 1.14
